molecular target: Penicillin-binding protein 2b (Staphylococcus aureus); assay: Binding affinity to methicillin-susceptible Staphylococcus aureus PBP 3
Sequence (Q9XDB3 whole entry): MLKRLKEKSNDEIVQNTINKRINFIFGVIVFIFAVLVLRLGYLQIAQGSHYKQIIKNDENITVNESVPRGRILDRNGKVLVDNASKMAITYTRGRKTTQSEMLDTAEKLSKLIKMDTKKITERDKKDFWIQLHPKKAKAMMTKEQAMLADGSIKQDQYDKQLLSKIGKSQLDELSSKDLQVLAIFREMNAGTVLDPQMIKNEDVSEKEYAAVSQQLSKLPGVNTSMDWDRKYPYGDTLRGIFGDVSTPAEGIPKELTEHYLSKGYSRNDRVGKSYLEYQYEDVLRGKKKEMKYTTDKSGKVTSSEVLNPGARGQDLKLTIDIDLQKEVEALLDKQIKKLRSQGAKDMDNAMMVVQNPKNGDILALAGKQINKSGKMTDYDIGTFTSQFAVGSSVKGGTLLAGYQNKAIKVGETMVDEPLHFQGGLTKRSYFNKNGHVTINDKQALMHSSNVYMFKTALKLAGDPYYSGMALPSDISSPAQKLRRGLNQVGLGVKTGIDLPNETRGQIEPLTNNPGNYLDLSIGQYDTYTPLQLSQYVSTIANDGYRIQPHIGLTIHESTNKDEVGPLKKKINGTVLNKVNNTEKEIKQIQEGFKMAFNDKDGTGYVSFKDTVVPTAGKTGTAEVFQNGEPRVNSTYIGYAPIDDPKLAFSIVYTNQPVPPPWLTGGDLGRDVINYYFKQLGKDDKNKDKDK

| smiles_code | measurement_unit | IC50 |
| --- | --- | --- |
| CCO/N=C(\C(=O)N[C@@H]1C(=O)N2C(C(=O)[O-])=C(Sc3nc(-c4cc[n+](C)cc4)cs3)CS[C@H]12)c1nsc(NP(=O)(O)O)n1 | nM | 71.6 |

====

target: Penicillin-binding protein 2b (Staphylococcus aureus); assay: Inhibition of methicillin-susceptible Staphylococcus aureus ATCC 29213 PBP 3

| compound | IC50 |
| --- | --- |
| Cc1oc(=O)oc1COC(=O)N1CC[C@@H](N2CC/C(=C\C3=C(C(=O)O)N4C(=O)[C@@H](NC(=O)/C(=N/O)c5nsc(N)n5)[C@H]4SC3)C2=O)C1 [CEFTOBIPROLE MEDOCARIL FREE ACID] | 72.4 nM |

====

Target: Penicillin-binding protein 4 (Staphylococcus aureus)
Sequence (P72355 whole entry): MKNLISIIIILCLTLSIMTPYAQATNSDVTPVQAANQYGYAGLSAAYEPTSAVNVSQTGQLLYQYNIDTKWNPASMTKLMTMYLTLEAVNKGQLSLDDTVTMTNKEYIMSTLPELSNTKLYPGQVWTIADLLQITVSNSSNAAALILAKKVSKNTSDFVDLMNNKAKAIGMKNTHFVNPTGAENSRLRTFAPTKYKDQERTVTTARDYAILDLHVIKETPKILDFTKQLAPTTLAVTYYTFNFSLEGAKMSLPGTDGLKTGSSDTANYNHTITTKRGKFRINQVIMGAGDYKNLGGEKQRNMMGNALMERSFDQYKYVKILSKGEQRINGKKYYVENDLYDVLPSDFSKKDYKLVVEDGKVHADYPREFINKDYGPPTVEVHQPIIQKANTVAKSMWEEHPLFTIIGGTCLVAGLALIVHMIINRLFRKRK
Experiment: Binding affinity to methicillin-susceptible Staphylococcus aureus PBP 4

| smiles_code | IC50 |
| --- | --- |
| CCO/N=C(\C(=O)N[C@@H]1C(=O)N2C(C(=O)[O-])=C(Sc3nc(-c4cc[n+](C)cc4)cs3)CS[C@H]12)c1nsc(NP(=O)(O)O)n1 | > 1460 nM |

====

molecular target: Penicillin-binding protein 2 (Staphylococcus aureus, UniProt Q53729); assay: Inhibition of methicillin-susceptible Staphylococcus aureus ATCC 29213 PBP 2
Sequence (Q53729 whole entry): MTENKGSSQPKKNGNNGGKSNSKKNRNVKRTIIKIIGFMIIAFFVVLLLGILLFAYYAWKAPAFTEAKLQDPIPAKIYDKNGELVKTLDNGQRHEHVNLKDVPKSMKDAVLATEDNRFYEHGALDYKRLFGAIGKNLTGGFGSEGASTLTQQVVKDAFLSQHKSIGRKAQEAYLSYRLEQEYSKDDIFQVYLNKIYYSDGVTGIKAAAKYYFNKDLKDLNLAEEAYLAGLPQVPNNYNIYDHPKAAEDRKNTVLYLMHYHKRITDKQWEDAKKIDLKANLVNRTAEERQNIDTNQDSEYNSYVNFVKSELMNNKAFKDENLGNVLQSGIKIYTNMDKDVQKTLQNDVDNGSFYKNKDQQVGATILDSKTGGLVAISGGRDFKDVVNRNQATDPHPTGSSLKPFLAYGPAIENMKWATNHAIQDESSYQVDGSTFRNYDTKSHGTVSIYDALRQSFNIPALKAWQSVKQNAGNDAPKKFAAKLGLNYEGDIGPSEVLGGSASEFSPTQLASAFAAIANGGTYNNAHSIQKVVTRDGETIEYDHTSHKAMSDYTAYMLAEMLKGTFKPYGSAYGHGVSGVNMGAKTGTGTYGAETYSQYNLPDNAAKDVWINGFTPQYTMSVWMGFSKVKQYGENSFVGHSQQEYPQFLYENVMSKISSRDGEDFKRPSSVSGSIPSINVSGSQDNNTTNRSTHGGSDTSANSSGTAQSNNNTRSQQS
pIC50: −log10 of the molar value.
readout_type: pIC50

| compound | meas_value |
| --- | --- |
| Cc1oc(=O)oc1COC(=O)N1CC[C@@H](N2CC/C(=C\C3=C(C(=O)O)N4C(=O)[C@@H](NC(=O)/C(=N/O)c5nsc(N)n5)[C@H]4SC3)C2=O)C1 [CEFTOBIPROLE MEDOCARIL FREE ACID] | 6.14 |

====

Biological target: MecA (Staphylococcus aureus, UniProt Q7DHH4)
Sequence (Q7DHH4 whole entry): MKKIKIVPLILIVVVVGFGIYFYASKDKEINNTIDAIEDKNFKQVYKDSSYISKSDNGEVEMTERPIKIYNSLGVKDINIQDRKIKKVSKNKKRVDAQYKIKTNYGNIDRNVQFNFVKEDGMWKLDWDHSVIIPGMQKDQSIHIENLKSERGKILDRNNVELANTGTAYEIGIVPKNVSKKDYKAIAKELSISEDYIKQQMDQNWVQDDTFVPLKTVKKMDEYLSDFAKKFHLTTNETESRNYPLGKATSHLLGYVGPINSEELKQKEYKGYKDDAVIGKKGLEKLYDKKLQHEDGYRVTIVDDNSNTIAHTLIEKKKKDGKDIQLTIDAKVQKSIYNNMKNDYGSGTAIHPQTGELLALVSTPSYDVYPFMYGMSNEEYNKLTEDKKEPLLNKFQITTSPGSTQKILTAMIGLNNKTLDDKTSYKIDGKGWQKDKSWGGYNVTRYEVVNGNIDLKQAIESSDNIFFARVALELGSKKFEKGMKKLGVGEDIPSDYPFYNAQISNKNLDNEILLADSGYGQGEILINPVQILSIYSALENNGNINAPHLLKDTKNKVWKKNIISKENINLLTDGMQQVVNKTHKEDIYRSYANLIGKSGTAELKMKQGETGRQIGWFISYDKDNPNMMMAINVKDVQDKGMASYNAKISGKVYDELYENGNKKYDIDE
Experiment: Inhibition of methicillin-resistant Staphylococcus aureus PBP 2a
readout_type: IC50 (nM)

| smiles_code | measurement_unit | meas_value |
| --- | --- | --- |
| CCO/N=C(\C(=O)N[C@@H]1C(=O)N2C(C(=O)[O-])=C(Sc3nc(-c4cc[n+](C)cc4)cs3)CS[C@H]12)c1nsc(NP(=O)(O)O)n1 | nM | 234 |

====

target: UniProt:Q7DHH4; experiment: Binding affinity to methicillin-resistant Staphylococcus aureus MF535HR PBP 2a by competitive binding assay

| smiles_code | measurement_unit | IC50 |
| --- | --- | --- |
| C[C@@H](O)[C@H]1C(=O)N2C(C(=O)[O-])=C(c3cn4cnc(C(=O)c5ccc[n+](CC(N)=O)c5)c4s3)[C@H](C)[C@H]12 | nM | 262 |

====

biological target: Penicillin-binding protein 4 (Staphylococcus aureus, UniProt P72355); test: Inhibition of methicillin-susceptible Staphylococcus aureus ATCC 29213 PBP 4
pIC50: −log10 of the molar value.

| compound | pIC50 |
| --- | --- |
| Cc1oc(=O)oc1COC(=O)N1CC[C@@H](N2CC/C(=C\C3=C(C(=O)O)N4C(=O)[C@@H](NC(=O)/C(=N/O)c5nsc(N)n5)[C@H]4SC3)C2=O)C1 [CEFTOBIPROLE MEDOCARIL FREE ACID] | 5.84 |

====

Molecular target: Penicillin-binding protein 1 (Staphylococcus aureus)
Sequence (Q53725 whole entry): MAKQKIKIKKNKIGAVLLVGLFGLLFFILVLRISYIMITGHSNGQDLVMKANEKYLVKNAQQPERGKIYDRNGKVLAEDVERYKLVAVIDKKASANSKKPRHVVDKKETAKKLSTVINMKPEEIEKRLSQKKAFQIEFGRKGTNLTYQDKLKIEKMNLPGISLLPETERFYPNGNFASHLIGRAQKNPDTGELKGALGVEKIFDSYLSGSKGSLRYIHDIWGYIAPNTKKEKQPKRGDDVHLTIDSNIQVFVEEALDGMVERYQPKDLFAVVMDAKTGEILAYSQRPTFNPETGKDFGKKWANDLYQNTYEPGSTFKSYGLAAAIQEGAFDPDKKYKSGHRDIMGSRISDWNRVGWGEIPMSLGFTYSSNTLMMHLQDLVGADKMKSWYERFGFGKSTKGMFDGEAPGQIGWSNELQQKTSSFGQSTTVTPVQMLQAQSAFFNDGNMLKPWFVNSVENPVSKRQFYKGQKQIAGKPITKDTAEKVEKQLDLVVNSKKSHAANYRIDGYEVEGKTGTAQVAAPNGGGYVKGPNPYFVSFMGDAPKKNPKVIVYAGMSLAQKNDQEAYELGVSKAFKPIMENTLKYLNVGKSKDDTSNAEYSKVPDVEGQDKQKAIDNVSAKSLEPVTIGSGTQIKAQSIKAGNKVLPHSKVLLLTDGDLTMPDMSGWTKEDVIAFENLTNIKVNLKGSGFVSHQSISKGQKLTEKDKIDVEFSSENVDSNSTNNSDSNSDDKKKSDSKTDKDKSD
Assay: Inhibition of methicillin-susceptible Staphylococcus aureus ATCC 29213 PBP 1
readout_type: IC50 (µM)

| compound | measurement_unit | meas_value |
| --- | --- | --- |
| Cc1oc(=O)oc1COC(=O)N1CC[C@@H](N2CC/C(=C\C3=C(C(=O)O)N4C(=O)[C@@H](NC(=O)/C(=N/O)c5nsc(N)n5)[C@H]4SC3)C2=O)C1 [CEFTOBIPROLE MEDOCARIL FREE ACID] | µM | 0.145 |

====

Molecular target: Penicillin-binding protein 1 (Staphylococcus aureus)
Sequence (Q53725 whole entry): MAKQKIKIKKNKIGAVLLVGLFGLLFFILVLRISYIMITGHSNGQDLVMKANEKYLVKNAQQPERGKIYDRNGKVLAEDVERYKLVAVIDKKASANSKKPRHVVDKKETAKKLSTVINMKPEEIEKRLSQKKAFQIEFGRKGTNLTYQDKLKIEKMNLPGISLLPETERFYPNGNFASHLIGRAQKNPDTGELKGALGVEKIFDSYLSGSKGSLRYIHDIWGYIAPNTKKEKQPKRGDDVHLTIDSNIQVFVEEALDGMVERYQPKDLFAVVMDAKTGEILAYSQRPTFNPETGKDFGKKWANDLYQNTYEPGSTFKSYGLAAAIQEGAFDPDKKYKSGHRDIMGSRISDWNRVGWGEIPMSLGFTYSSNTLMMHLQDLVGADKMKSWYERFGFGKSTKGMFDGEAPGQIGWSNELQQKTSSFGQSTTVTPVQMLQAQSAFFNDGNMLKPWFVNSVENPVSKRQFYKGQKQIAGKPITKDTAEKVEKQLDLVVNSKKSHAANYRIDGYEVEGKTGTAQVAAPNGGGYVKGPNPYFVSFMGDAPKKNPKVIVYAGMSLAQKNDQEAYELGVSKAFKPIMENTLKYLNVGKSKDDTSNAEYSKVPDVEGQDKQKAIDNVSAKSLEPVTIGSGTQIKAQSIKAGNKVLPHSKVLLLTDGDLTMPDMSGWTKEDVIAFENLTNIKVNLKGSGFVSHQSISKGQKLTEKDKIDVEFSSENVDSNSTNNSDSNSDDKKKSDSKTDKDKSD
Experiment: Binding affinity to methicillin-susceptible Staphylococcus aureus PBP 1
pIC50: −log10 of the molar value.
readout_type: pIC50

| smiles_code | readout_type | meas_value |
| --- | --- | --- |
| CCO/N=C(\C(=O)N[C@@H]1C(=O)N2C(C(=O)[O-])=C(Sc3nc(-c4cc[n+](C)cc4)cs3)CS[C@H]12)c1nsc(NP(=O)(O)O)n1 | pIC50 | 6.84 |
